Would you mind telling me the reported normalized growth of each entry?
Procedure summary: chemical genetic growth profiling, strain panel (AID 1159580);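 also: tested at 20 µM; growth read once vehicle control cultures reached saturation at 30 °C; 1 = growth at the plate median or of vehicle wells; lower values mean less growth of the strain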
Experimental setup: S. cerevisiae deletion strains, growth OD, locus YLR262C, strain YPT6, active compounds read low
About 2,000 (36%) of roughly 5,500 compounds were called active. Inconclusive results (about 18%) are left out. The list shows a part of the results.
One number for each entry.

| Molecule | Test result |
| --- | --- |
| COc1cc(Cc2cnc(N)nc2N)cc(OC)c1OC | 1.03 |
| Cc1c(-c2csc(-c3ccc(Cl)cc3)n2)sc2ccc(Cl)cc12 | 1.09 |
| O=C(OCCNc1ccc([N+](=O)[O-])cn1)c1ccc([N+](=O)[O-])o1 | 0.703 |
| Nc1nc(Sc2ccc(C(F)(F)F)cc2[N+](=O)[O-])n[nH]1 | 1.03 |
| O=C(O)c1ccccc1Sc1c(C(=O)O)cc([N+](=O)[O-])cc1[N+](=O)[O-] | 0.984 |
| CCCCC#Cc1ccc(C(=O)NNC(=O)Nc2cc(Cl)cc(Cl)c2)o1 | 1.05 |
| O=[N+]([O-])c1cc(C(F)(F)F)ccc1Sc1ccc(Cl)cc1 | 0.967 |
| Cc1onc(-c2c(Cl)cccc2Cl)c1C(=O)N1CCN(c2ncnc3scc(-c4ccccc4)c23)CC1 | 0.962 |

Batch request: normalized growth for each of the following molecules.
1. O=C(O)c1cccnc1C(=O)O
2. C[N+]1(C)CCCC(OC(=O)C(O)(c2ccccc2)c2ccccc2)C1 (centres undefined)

[1.09, 0.979]

Go through the items and report each one's normalized growth.
1. O=C(Nc1cc(-c2ccccc2)[nH]n1)c1ccccc1
2. CN1C(=O)CC[C@H]1c1cccnc1
3. Nc1cccc2c1C(=O)c1ccccc1-2
4. O=C1NCCN=C(c2ccccc2)c2ccccc21
5. C[C@]12CC[C@@H](O)C[C@H]1CCc1ccccc12

1: 0.79; 2: 1.04; 3: 0.138; 4: 0.968; 5: 0.968

Please give normalized growth, item by item, for the list that follows.
1. CC(C)(C)c1cc(C(=O)NN)n[nH]1
2. CC(=O)c1ccc(Sc2ccccn2)c([N+](=O)[O-])c1
3. O=C1CSC(c2cccnc2)N1c1ccc(C2CCCCC2)cc1 (centres undefined)

[1.04, 0.822, 0.888]

Hi! Can you tell me normalized growth for each of these molecules?
1. Cc1noc(C)c1C(=O)N1CCOCC1
2. Nc1ccc(Sc2cc(Cl)ccc2Cl)nc1
3. O=C(c1ccccc1)c1ccc2n1CCC2C(=O)O (centres undefined)
4. Clc1cc(Cl)cc(Br)c1
5. CN1CCN(C2=Nc3cc(Cl)ccc3Nc3ccccc32)CC1
6. O=C(NNC(=O)c1ccc[nH]1)Nc1cc(Cl)cc(Cl)c1

[1.01, 0.348, 0.965, 1.07, 1.2, 1.03]

----------
Procedure summary: chemical genetic growth profiling, strain panel (AID 1159580);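 also: tested at 20 µM; growth read once vehicle control cultures reached saturation at 30 °C; 1 = growth at the plate median or of vehicle wells; lower values mean less growth of the strain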
Experimental setup: S. cerevisiae deletion strains, growth OD, locus YHR013C, strain ard1, active compounds read low
Out of some 5,500 compounds screened, about 2,000 (36%) were called active. Not shown: some 18% with an inconclusive outcome. The list shows a part of the results.
Recorded metric: normalized growth
One number for each entry.

Known results for compounds:
| Compound | normalized growth |
| --- | --- |
| O=C(O)C1=C(CSc2nnnn2CS(=O)(=O)O)CS[C@@H]2C(NC(=O)[C@H](O)c3ccccc3)C(=O)N12 (stereo not given in full) | 0.963 |
| O=C(/C=C/c1ccc(O)cc1)c1ccc(O)cc1O | 1.03 |
| O=C(/C=C/c1ccccc1)c1ccc(O[C@@H]2O[C@H](CO)[C@@H](O)[C@H](O)[C@H]2O)cc1O | 0.941 |
| CCCN(CCC)c1c([N+](=O)[O-])cc(C(F)(F)F)cc1[N+](=O)[O-] | 1.06 |

Record normalized growth per entry; entries follow.
1. CC(=O)Nc1c(I)cc(I)c(C(=O)O)c1I
2. Cc1cc2nc3c(=O)[nH]c(=O)nc-3n(CC(O)C(O)C(O)CO)c2cc1C (stereo not given)
3. COc1cc(O)c2c(c1)C(=O)c1cc(C)cc(O)c1C2=O
4. CCCCN(CC)c1c([N+](=O)[O-])cc(C(F)(F)F)cc1[N+](=O)[O-]
5. COc1ccccc1OCC(O)COC(N)=O (stereo not given)

1. 0.987
2. 0.992
3. 0.997
4. 1.06
5. 0.952

State its normalized growth: C[N+]12CCC(CC1)C(OC(=O)C(O)(c1ccccc1)c1ccccc1)C2 (stereo not given) 0.962
